Tested on: C57BL/6 mice
Assay: Bleomycin-induced lung fibrosis model
Format: in vivo
Conditions: Mus musculus, po, 504 h, 0.3 mg/kg orally once a day, three weeks after intratracheal bleomycin 6 mg/kg, vs solvent-administered group, read-out: Inhibitory ratio against the increment in the lung hydroxyproline amount
Assign inhibition in vivo at 0.3 mg/kg to each entry below.
Answer format: number, then unit.

Query string: I would be grateful if you could share the reported inhibition in vivo at 0.3 mg/kg for COc1ccc(C2=NN(C)C(=O)C2)cc1OC1CCCC1 .
Result string: 73%

Query string: I would be grateful if you could share the reported inhibition in vivo at 0.3 mg/kg for COc1ccc(C2=NNC(=O)C2)cc1OC1CCCC1 .
Result string: 73%

Query string: I would be grateful if you could share the reported inhibition in vivo at 0.3 mg/kg for COc1ccc(C2=NNC(=O)C2)cc1OC1Cc2ccccc2C1 .
Result string: 77%
